# system.under.test: CCR5 (Homo sapiens)
# Construct: expressed in transfected cells
# Sequence (P51681 whole entry): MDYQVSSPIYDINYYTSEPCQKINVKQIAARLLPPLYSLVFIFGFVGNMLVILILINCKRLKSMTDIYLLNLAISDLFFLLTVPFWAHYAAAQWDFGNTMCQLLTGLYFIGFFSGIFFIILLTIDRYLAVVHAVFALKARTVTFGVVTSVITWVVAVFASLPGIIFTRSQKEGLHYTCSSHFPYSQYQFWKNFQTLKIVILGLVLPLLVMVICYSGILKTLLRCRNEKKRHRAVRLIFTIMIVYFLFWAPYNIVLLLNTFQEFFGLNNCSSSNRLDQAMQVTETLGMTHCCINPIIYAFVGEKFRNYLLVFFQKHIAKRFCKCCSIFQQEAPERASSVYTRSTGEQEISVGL
# assay.info: Figure S2a opioid peptide screen on chemokine receptors
# Assay type: cell-based
# Parameters: dose or concentration left out as unconfirmed
# condition.context: replicate 3, read-out: CCR5 activity, ctrl+ = 100
Starred links: 1 amine or outer side, 2 acyl side, 3 side chain; linkers in the order of their positions; H or OH if unused. Non-standard residues stand in square brackets, D forms with d. Residues, ends and D or L forms follow the SMILES beside them. X1 = N[C@@H](Cc1ccccc1)CN(CC(=O)[*:2])[*:1]
Could you please report measured activation for the items listed next?
The reply should contain only the number, in %.

stdin: Give the reported value of activation for this record: CSCC[C@H](NC(=O)[C@H](Cc1ccccc1)NC(=O)CNC(=O)CNC(=O)[C@@H](N)Cc1ccc(O)cc1)C(=O)N[C@@H](CCCNC(=N)N)C(=O)N[C@@H](CCCNC(=N)N)C(=O)N[C@H](C(N)=O)C(C)C [Adrenorphin]
stdout: -0.49

stdin: For the compound CC[C@H](C)[C@H](NC(=O)[C@H](CCCNC(=N)N)NC(=O)[C@H](CCCNC(=N)N)NC(=O)[C@H](CC(C)C)NC(=O)[C@H](Cc1ccccc1)NC(=O)CNC(=O)CNC(=O)[C@@H](N)Cc1ccc(O)cc1)C(=O)N[C@@H](CCCNC(=N)N)C(=O)N1CCC[C@H]1C(=O)N[C@@H](CCCCN)C(=O)N[C@@H](CC(C)C)C(=O)N[C@@H](CCCCN)C(=O)N[C@@H](Cc1c[nH]c2ccccc12)C(=O)N[C@@H](CC(=O)O)C(=O)N[C@@H](CC(N)=O)C(=O)N[C@@H](CCC(N)=O)C(=O)O [Dynorphin A] , give its measured activation value.
stdout: 2.35

stdin: Give recorded activation. CC(C)C[C@H](NC(=O)[C@H](Cc1ccccc1)NC(=O)CNC(=O)CNC(=O)[C@@H](N)Cc1ccc(O)cc1)C(=O)N[C@@H](CCCN=C(N)N)C(=O)N[C@@H](CCCN=C(N)N)C(=O)N[C@@H](CCC(N)=O)C(=O)N[C@@H](Cc1ccccc1)C(=O)N[C@@H](CCCCN)C(=O)N[C@H](C(=O)N[C@H](C(=O)N[C@H](C(=O)O)[C@@H](C)O)C(C)C)C(C)C [Dynorphin B]
stdout: 1.82

stdin: Identify the reported activation for the following entry. C[C@H](NC(=O)CNC(=O)[C@@H](NC(=O)[C@H](Cc1ccccc1)NC(=O)CNC(=O)CNC[C@@H](N)Cc1ccccc1)[C@@H](C)O)C(=O)N[C@@H](CCCNC(=N)N)C(=O)N[C@@H](CCCCN)C(=O)N[C@@H](CO)C(=O)N[C@@H](C)C(=O)N[C@@H](CCCNC(=N)N)C(=O)N[C@@H](CCCCN)C(N)=O [FG Nociceptin 1-13] (H-[X1]GFTGARKSARK-NH2)
stdout: 0.582

stdin: Note activation for the compound shown: C[C@H](NC(=O)CNC(=O)[C@@H](NC(=O)[C@H](Cc1ccccc1)NC(=O)CNC(=O)CNC(=O)[C@@H](N)Cc1ccccc1)[C@@H](C)O)C(=O)N[C@@H](CCCNC(=N)N)C(=O)N[C@@H](CCCCN)C(=O)N[C@@H](CO)C(=O)N[C@@H](C)C(=O)N[C@@H](CCCNC(=N)N)C(=O)N[C@@H](CCCCN)C(N)=O [Nociceptin 1-13]
stdout: 0.907
